biological target: UniProtKB P34972; assay: Binding affinity to human CB2 receptor transfected in HEK293 cells
Sequence (P34972 whole entry): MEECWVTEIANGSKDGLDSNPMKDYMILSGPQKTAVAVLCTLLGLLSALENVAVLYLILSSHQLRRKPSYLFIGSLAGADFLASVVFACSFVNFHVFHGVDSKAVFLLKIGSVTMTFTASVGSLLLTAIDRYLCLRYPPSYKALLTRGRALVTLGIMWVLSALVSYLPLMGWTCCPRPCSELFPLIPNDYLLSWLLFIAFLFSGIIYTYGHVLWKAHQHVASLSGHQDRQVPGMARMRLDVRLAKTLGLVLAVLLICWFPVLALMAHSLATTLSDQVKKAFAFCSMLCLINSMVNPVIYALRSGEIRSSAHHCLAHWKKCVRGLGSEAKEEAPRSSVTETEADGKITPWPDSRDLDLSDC
Result type: Ki
Report as: number unit

Ask | Look up and state reported Ki for `CC(C)(c1ccccc1)c1cc(O)c(-c2cc(Cl)cc(Cl)c2)c(O)c1`
Reply | 1.07 nM

###

species: Homo sapiens; test: Selectivity ratio of Ki for human CB1 receptor to Ki for human CB2 receptor
Result type: Ratio Ki

Ask | Look up and state reported Ratio Ki for COc1cc(C(O)c2ccccc2)cc(OC)c1-c1cc(Cl)cc(Cl)c1 (stereo not given)
Reply | 602

Ask | Look up and state reported Ratio Ki for `CC1=CC[C@@H]2[C@@H](C1)c1c(O)cc(C(C)(C)c3ccccc3)cc1OC2(C)C`
Reply | 13.5

Ask | Look up and state reported Ratio Ki for `O=C(c1ccccc1)c1cc(O)c(-c2cc(Cl)cc(Cl)c2)c(O)c1`
Reply | 9.2

Ask | Look up and state reported Ratio Ki for `CC(C)(c1ccccc1)c1cc(O)c(-c2cc(Cl)cc(Cl)c2)c(O)c1`
Reply | 87.5

Ask | Look up and state reported Ratio Ki for `COc1cc(C(=O)c2ccccc2)cc(O)c1-c1cc(Cl)cc(Cl)c1`
Reply | 210
